# Test system: Renilla luciferase RNA
# procedure.text: Barcoded aptazyme variant library screen: un-cleaved Renilla luciferase RNA by barcode read counts, HEK293-T cells
# Format: cell-based
# experimental.parameters: un-cleaved Renilla luciferase RNA by barcode read counts; with 1 mM theophylline (ON) over without theophylline (OFF); HEK293-T cells; triplicate
result.type: Fold change in RNA expression between the ON state and the OFF state
Keep the answer to the number alone.

Take a look at these entries with their results.
[[record]]
molecule = "RA311 (nucleic acid, expressed or natural sequence) DNA: GCGCGTCCTGGATTCGCGGAAACGCGTCGAGAATACCAGCATCGTCTTGATGCCCTTGGAAGTCTCGACATCCAGCTGACGAGTCCCAAATAGGACGAAACGCGC"
measured_result = 1.0

[[record]]
molecule = "RA330 (nucleic acid, expressed or natural sequence) DNA: GCGCGTCCTGGGAGAATACCAGCATCGTCTTGATGCCCTTGGAAGTCTCATTCGCGGAAACGCGTACATCCAGCTGACGAGTCCCAAATAGGACGAAACGCGC"
measured_result = 0.9

[[record]]
molecule = "RA381 (nucleic acid, expressed or natural sequence) DNA: GCGCGTCCTGGATTCGCGGAAACGCGTACATCCAGCTGACGAGTCCCAAATAGGACGAAACGCGCCCGGAATACCAGCATCGTCTTGATGCCCTTGGAAGTCCGG"
measured_result = 0.8


# ---- query molecule ----
Q: GET /values?readout=Fold change in RNA expression between the ON state and the OFF state&item= RA463 (nucleic acid, expressed or natural sequence) DNA: GCGCGTCCTGGATTCGCGGAAACGCGTACATCCAGCTGACGAGTCGAGAATACCAGCATCGTCTTGATGCCCTTGGAAGTCTCGCCCAAATAGGACGAAACGCGC
Ans: 0.4
